# assay-notes: ATP-PPi exchange assay (amino acid activation)
# Format: biochemical
# condition: nsAA pAcF
property-label: Km (mM)
Number in mM, nothing else.

- molecule: "pAcFRS.t1: pAcFRS variant R257G, SEQ ID NO: 3 (protein) MDEFEMIKRNTSEIISEEELREVLKKDEKSALIGFEPSGKIHLGHYLQIKKMIDLQNAGFDIIILLADLHAYLNQKGELDEIRKIGDYNKKVFEAMGLKAKYVYGSEFQLDKDYTLNVYRLALKTTLKRARRSMELIAREDENPKVAEVIYPIMQVNGCHYRGVDVAVGGMEQRKIHMLARELLPKKVVCIHNPVLTGLDGEGKMSSSKGNFIAVDDSPEEIRAKIKKAYCPAGVVEGNPIMEIAKYFLEYPLTIKGPEKFGGDLTVNSYEELESLFKNKELHPMRLKNAVAEELIKILEPIRKRL"
  property-label: "Km"
  unit-text: "mM"
  quantitative-readout: 9.17
- molecule: "pAcFRS.t2: pAcFRS variant R257C, F261E, SEQ ID NO: 4 (protein) MDEFEMIKRNTSEIISEEELREVLKKDEKSALIGFEPSGKIHLGHYLQIKKMIDLQNAGFDIIILLADLHAYLNQKGELDEIRKIGDYNKKVFEAMGLKAKYVYGSEFQLDKDYTLNVYRLALKTTLKRARRSMELIAREDENPKVAEVIYPIMQVNGCHYRGVDVAVGGMEQRKIHMLARELLPKKVVCIHNPVLTGLDGEGKMSSSKGNFIAVDDSPEEIRAKIKKAYCPAGVVEGNPIMEIAKYFLEYPLTIKCPEKEGGDLTVNSYEELESLFKNKELHPMRLKNAVAEELIKILEPIRKRL"
  property-label: "Km"
  unit-text: "mM"
  quantitative-readout: 8.59

Provide one value: measured Km of pAcFRS.1: pAcFRS variant A167D, SEQ ID NO: 2 (protein) MDEFEMIKRNTSEIISEEELREVLKKDEKSALIGFEPSGKIHLGHYLQIKKMIDLQNAGFDIIILLADLHAYLNQKGELDEIRKIGDYNKKVFEAMGLKAKYVYGSEFQLDKDYTLNVYRLALKTTLKRARRSMELIAREDENPKVAEVIYPIMQVNGCHYRGVDVDVGGMEQRKIHMLARELLPKKVVCIHNPVLTGLDGEGKMSSSKGNFIAVDDSPEEIRAKIKKAYCPAGVVEGNPIMEIAKYFLEYPLTIKRPEKFGGDLTVNSYEELESLFKNKELHPMRLKNAVAEELIKILEPIRKRL 2.16
